assay-comment: Cytotoxicity against human HL60R cells assessed as effect on cell cycle at 10 uM
Assay type: cell-based
reported-metric: Activity

test-smiles | assay-result
COc1ccc(CCN(C)CC#CCN2C(=O)[C@@H]3[C@H]4c5ccccc5[C@H](c5ccccc54)[C@@H]3C2=O)cc1OC | Toxic
CN1CCN(CC#CCN2C(=O)[C@@H]3[C@H]4c5ccccc5[C@H](c5ccccc54)[C@@H]3C2=O)CC1 | Non-toxic
O=C1[C@@H]2[C@H]3c4ccccc4[C@H](c4ccccc43)[C@@H]2C(=O)N1CC#CCN1CCC(n2c(=O)[nH]c3ccccc32)CC1 | Non-toxic

====

test-target: ATP-dependent translocase ABCB1 (Homo sapiens)
assay-comment: Reversal of human MDR1-mediated drug efflux in mouse L5178 cells using rhodamine 123 as substrate assessed as fluorescence activity ratio at 40 uM incubated for 10 mins prior to substrate addition measured after 20 mins by FACScan flow cytometry relative to control
Assay type: cell-based
experimental-conditions: l5178, 20 min
# note: boundary value 40 maps to no; Ratio below it maps to yes

test-smiles | class-name
O=C1[C@@H]2[C@H]3c4ccccc4[C@H](c4ccccc43)[C@@H]2C(=O)N1CC#CCN1CCN(C(c2ccc(F)cc2)c2ccc(F)cc2)CC1 | yes
O=C1[C@@H]2[C@H]3c4ccccc4[C@H](c4ccccc43)[C@@H]2C(=O)N1CC#CCN1CCN(Cc2ccccc2)CC1 | no
CN1CCN(CC#CCN2C(=O)[C@@H]3[C@H]4c5ccccc5[C@H](c5ccccc54)[C@@H]3C2=O)CC1 | no
O=C1[C@@H]2[C@H]3c4ccccc4[C@H](c4ccccc43)[C@@H]2C(=O)N1CC#CCN1CCC(n2c(=O)[nH]c3ccccc32)CC1 | no
O=C1[C@@H]2[C@H]3c4ccccc4[C@H](c4ccccc43)[C@@H]2C(=O)N1CC#CCN1CCN(c2ccccc2)CC1 | yes

====

assay-comment: Cytotoxicity against human HL60 cells assessed as cell viability at 10 uM by MTT assay
Type: cell-based
experimental-conditions: hl-60, 10 µM

test-smiles | Activity
O=C1[C@@H]2[C@H]3c4ccccc4[C@H](c4ccccc43)[C@@H]2C(=O)N1CC#CCN1CCN(C(c2ccc(F)cc2)c2ccc(F)cc2)CC1 | Non-toxic
COc1ccc(CCN(C)CC#CCN2C(=O)[C@@H]3[C@H]4c5ccccc5[C@H](c5ccccc54)[C@@H]3C2=O)cc1OC | Toxic
CN1CCN(CC#CCN2C(=O)[C@@H]3[C@H]4c5ccccc5[C@H](c5ccccc54)[C@@H]3C2=O)CC1 | Non-toxic
O=C1[C@@H]2[C@H]3c4ccccc4[C@H](c4ccccc43)[C@@H]2C(=O)N1CC#CCN1CCN(Cc2ccccc2)CC1 | Non-toxic
O=C1[C@@H]2[C@H]3c4ccccc4[C@H](c4ccccc43)[C@@H]2C(=O)N1CC#CCN1CCC(n2c(=O)[nH]c3ccccc32)CC1 | Non-toxic
O=C1[C@@H]2[C@H]3c4ccccc4[C@H](c4ccccc43)[C@@H]2C(=O)N1CC#CCN1CCN(c2ccccc2)CC1 | Non-toxic

====

test-target: Multidrug resistance protein 1/Multidrug resistance associated protein 1 (Homo sapiens, UniProt P33527+P08183)
assay-comment: Inhibition of MDR1/MRP1 overexpressed in doxorubicin-resistant human HL60R cells assessed as DXR accumulation at 10 uM incubated for 2 hrs prior to DXR challenge measured after 2 hrs by fluorescence assay relative to control
Assay type: cell-based
reported-metric: inhibition (INH)

test-smiles | reported-metric | assay-result
O=C1[C@@H]2[C@H]3c4ccccc4[C@H](c4ccccc43)[C@@H]2C(=O)N1CC#CCN1CCN(Cc2ccccc2)CC1 | inhibition (INH) | Active
C#CCN1C(=O)[C@@H]2[C@H]3c4ccccc4[C@H](c4ccccc43)[C@@H]2C1=O | inhibition (INH) | Not Active
O=C1[C@@H]2[C@H]3c4ccccc4[C@H](c4ccccc43)[C@@H]2C(=O)N1CC#CCN1CCN(c2ccccc2)CC1 | inhibition (INH) | Not Active
O=C1[C@@H]2[C@H]3c4ccccc4[C@H](c4ccccc43)[C@@H]2C(=O)N1CC#CCN1CCN(C(c2ccc(F)cc2)c2ccc(F)cc2)CC1 | inhibition (INH) | Active
CN1CCN(CC#CCN2C(=O)[C@@H]3[C@H]4c5ccccc5[C@H](c5ccccc54)[C@@H]3C2=O)CC1 | inhibition (INH) | Not Active
O=C1[C@@H]2[C@H]3c4ccccc4[C@H](c4ccccc43)[C@@H]2C(=O)N1CC#CCN1CCC(n2c(=O)[nH]c3ccccc32)CC1 | inhibition (INH) | Not Active

====

assay-comment: Lipophilicity, log P of the compound
Assay type: physicochemical
experimental-conditions: octanol/water
Recorded measurements of logP, one per entry

test-smiles | logP
CN1CCN(CC#CCN2C(=O)[C@@H]3[C@H]4c5ccccc5[C@H](c5ccccc54)[C@@H]3C2=O)CC1 | 2.54
O=C1[C@@H]2[C@H]3c4ccccc4[C@H](c4ccccc43)[C@@H]2C(=O)N1CC#CCN1CCN(Cc2ccccc2)CC1 | 2.54
O=C1[C@@H]2[C@H]3c4ccccc4[C@H](c4ccccc43)[C@@H]2C(=O)N1CC#CCN1CCN(c2ccccc2)CC1 | 2.54
O=C1[C@@H]2[C@H]3c4ccccc4[C@H](c4ccccc43)[C@@H]2C(=O)N1CC#CCN1CCC(n2c(=O)[nH]c3ccccc32)CC1 | 2.54
O=C1[C@@H]2[C@H]3c4ccccc4[C@H](c4ccccc43)[C@@H]2C(=O)N1CC#CCN1CCN(C(c2ccc(F)cc2)c2ccc(F)cc2)CC1 | 6.3

====

test-target: Multidrug resistance protein 1/Multidrug resistance associated protein 1 (Homo sapiens, UniProt P33527+P08183)
assay-comment: Activity at human MDR1/MRP1 overexpressed in doxorubicin-resistant human HL60R cells assessed as ATP consumption at 10 uM after 2 hrs by luminescence assay (reference value: 6350 +/- 303 RLU)
Format: cell-based

test-smiles | RLU
O=C1[C@@H]2[C@H]3c4ccccc4[C@H](c4ccccc43)[C@@H]2C(=O)N1CC#CCN1CCN(C(c2ccc(F)cc2)c2ccc(F)cc2)CC1 | 4276
COc1ccc(CCN(C)CC#CCN2C(=O)[C@@H]3[C@H]4c5ccccc5[C@H](c5ccccc54)[C@@H]3C2=O)cc1OC | 2612
O=C1[C@@H]2[C@H]3c4ccccc4[C@H](c4ccccc43)[C@@H]2C(=O)N1CC#CCN1CCN(Cc2ccccc2)CC1 | 3957
O=C1[C@@H]2[C@H]3c4ccccc4[C@H](c4ccccc43)[C@@H]2C(=O)N1CC#CCN1CCN(c2ccccc2)CC1 | 3650
O=C1[C@@H]2[C@H]3c4ccccc4[C@H](c4ccccc43)[C@@H]2C(=O)N1CC#CCN1CCC(n2c(=O)[nH]c3ccccc32)CC1 | 4363
CN1CCN(CC#CCN2C(=O)[C@@H]3[C@H]4c5ccccc5[C@H](c5ccccc54)[C@@H]3C2=O)CC1 | 3429

====

test-target: ATP-dependent translocase ABCB1 (Homo sapiens, UniProt P08183)
Sequence (P08183 whole entry): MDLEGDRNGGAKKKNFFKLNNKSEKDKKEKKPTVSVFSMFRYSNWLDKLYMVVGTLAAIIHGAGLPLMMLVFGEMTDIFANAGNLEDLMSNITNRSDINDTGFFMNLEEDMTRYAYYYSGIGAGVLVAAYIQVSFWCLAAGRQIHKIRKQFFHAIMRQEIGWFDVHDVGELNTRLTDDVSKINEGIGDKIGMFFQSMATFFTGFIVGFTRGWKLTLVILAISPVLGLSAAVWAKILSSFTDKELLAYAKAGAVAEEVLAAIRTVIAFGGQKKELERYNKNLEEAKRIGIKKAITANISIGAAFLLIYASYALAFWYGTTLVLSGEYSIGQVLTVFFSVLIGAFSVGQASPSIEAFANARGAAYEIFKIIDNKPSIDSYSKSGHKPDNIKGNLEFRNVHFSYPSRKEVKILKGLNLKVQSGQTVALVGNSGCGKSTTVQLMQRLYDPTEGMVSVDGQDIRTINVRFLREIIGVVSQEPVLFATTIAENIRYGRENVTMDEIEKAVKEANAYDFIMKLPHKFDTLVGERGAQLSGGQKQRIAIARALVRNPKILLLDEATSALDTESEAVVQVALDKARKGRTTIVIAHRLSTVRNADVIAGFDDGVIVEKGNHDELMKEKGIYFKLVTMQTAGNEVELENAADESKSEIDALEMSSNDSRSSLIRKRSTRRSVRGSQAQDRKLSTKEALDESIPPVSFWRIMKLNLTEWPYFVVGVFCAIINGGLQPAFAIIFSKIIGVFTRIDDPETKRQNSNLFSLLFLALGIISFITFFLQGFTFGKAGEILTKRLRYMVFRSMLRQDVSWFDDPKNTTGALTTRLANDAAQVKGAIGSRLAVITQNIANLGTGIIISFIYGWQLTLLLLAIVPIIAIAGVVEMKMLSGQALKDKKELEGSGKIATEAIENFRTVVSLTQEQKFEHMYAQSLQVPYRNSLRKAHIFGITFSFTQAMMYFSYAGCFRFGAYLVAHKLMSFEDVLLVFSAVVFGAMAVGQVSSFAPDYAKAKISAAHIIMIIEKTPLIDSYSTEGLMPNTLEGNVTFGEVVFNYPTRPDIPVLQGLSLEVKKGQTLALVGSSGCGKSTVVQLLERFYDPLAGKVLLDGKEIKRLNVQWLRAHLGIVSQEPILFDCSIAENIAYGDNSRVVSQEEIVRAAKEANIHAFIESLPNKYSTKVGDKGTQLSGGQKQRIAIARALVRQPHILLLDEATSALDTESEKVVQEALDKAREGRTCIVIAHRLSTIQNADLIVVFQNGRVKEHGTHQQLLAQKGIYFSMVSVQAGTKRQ
assay-comment: Reversal of human MDR1-mediated drug efflux in mouse L5178 cells using rhodamine 123 as substrate assessed as fluorescence activity ratio at 4 uM incubated for 10 mins prior to substrate addition measured after 20 mins by FACScan flow cytometry relative to control
Assay type: cell-based
experimental-conditions: l5178, 20 min
Everything with Ratio lower than 10 is N; everything else, including exactly 10, is Y.

test-smiles | class-name
O=C1[C@@H]2[C@H]3c4ccccc4[C@H](c4ccccc43)[C@@H]2C(=O)N1CC#CCN1CCN(C(c2ccc(F)cc2)c2ccc(F)cc2)CC1 | Y
O=C1[C@@H]2[C@H]3c4ccccc4[C@H](c4ccccc43)[C@@H]2C(=O)N1CC#CCN1CCC(n2c(=O)[nH]c3ccccc32)CC1 | N
CN1CCN(CC#CCN2C(=O)[C@@H]3[C@H]4c5ccccc5[C@H](c5ccccc54)[C@@H]3C2=O)CC1 | N
O=C1[C@@H]2[C@H]3c4ccccc4[C@H](c4ccccc43)[C@@H]2C(=O)N1CC#CCN1CCN(Cc2ccccc2)CC1 | Y
O=C1[C@@H]2[C@H]3c4ccccc4[C@H](c4ccccc43)[C@@H]2C(=O)N1CC#CCN1CCN(c2ccccc2)CC1 | N

====

assay-comment: Cytotoxicity against human HL60R cells assessed as cell viability at 10 uM by MTT assay
Format: cell-based

test-smiles | Activity
COc1ccc(CCN(C)CC#CCN2C(=O)[C@@H]3[C@H]4c5ccccc5[C@H](c5ccccc54)[C@@H]3C2=O)cc1OC | Toxic
O=C1[C@@H]2[C@H]3c4ccccc4[C@H](c4ccccc43)[C@@H]2C(=O)N1CC#CCN1CCN(c2ccccc2)CC1 | Non-toxic
O=C1[C@@H]2[C@H]3c4ccccc4[C@H](c4ccccc43)[C@@H]2C(=O)N1CC#CCN1CCN(C(c2ccc(F)cc2)c2ccc(F)cc2)CC1 | Non-toxic
O=C1[C@@H]2[C@H]3c4ccccc4[C@H](c4ccccc43)[C@@H]2C(=O)N1CC#CCN1CCC(n2c(=O)[nH]c3ccccc32)CC1 | Non-toxic
CN1CCN(CC#CCN2C(=O)[C@@H]3[C@H]4c5ccccc5[C@H](c5ccccc54)[C@@H]3C2=O)CC1 | Non-toxic
O=C1[C@@H]2[C@H]3c4ccccc4[C@H](c4ccccc43)[C@@H]2C(=O)N1CC#CCN1CCN(Cc2ccccc2)CC1 | Non-toxic
